Source of measurements: ChEMBL document CHEMBL1137176

Target: Melanocortin receptor 5 (Homo sapiens)
Sequence (P33032 whole entry): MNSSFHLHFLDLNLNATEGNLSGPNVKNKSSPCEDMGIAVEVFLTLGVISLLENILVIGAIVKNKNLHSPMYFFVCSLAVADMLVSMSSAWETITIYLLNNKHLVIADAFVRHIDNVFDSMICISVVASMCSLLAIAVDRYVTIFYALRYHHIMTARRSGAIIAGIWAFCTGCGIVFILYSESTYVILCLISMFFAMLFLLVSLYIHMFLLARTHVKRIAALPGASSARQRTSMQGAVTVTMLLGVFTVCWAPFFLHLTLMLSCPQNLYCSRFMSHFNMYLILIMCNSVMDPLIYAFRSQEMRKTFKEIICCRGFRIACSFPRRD
pKi: −log10 of the molar value.
attribute measured: pKi

a = CC(N[C@H]1CCNC1)c1ccccc1N1CCN(C(=O)[C@@H](Cc2ccc(Cl)cc2)NC(=O)[C@H]2Cc3ccccc3CN2)CC1 (some centres not stated)
b = O=C(N[C@H](Cc1ccc(Cl)cc1)C(=O)N1CCN(c2ccccc2CNCCc2cccs2)CC1)[C@H]1Cc2ccccc2CN1
Problem: Between the two listed entries a and b , which has its pKi at the higher number? Answer with the label corresponding to your selection.
Solution: b
(b: 6.62, a: 6.23)

###

Molecular target: Melanocortin receptor 4 (Homo sapiens, UniProt P32245)
Sequence (P32245 whole entry): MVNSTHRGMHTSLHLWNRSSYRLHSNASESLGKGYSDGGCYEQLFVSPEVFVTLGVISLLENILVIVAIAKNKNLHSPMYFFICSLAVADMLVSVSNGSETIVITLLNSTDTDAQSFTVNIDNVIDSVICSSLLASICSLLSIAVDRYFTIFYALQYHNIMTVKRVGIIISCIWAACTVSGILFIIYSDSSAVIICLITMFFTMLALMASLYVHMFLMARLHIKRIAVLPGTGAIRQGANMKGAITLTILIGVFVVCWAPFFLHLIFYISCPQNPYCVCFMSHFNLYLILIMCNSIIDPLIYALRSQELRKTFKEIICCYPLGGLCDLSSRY
Test: Effective concentration against cAMP release in CHO cells expressing human melanocortin-4 receptor
Assay type: functional, cell-based
attribute measured: EC50 (nM)

| molecule | measurement |
| --- | --- |
| O=C(N[C@H](Cc1ccc(Cl)cc1)C(=O)N1CCN(c2ccccc2Cn2cncn2)CC1)[C@H]1Cc2ccccc2CN1 | 110 |
| CC(NCc1ccco1)c1ccccc1N1CCN(C(=O)[C@@H](Cc2ccc(Cl)cc2)NC(=O)[C@H]2Cc3ccccc3CN2)CC1 (stereo not given in full) | 138 |
| O=C(N[C@H](Cc1ccc(Cl)cc1)C(=O)N1CCN(c2ccccc2CN2CCN(c3ccccc3)CC2)CC1)[C@H]1Cc2ccccc2CN1 | 300 |
| CC(NCCc1ccccc1F)c1ccccc1N1CCN(C(=O)[C@@H](Cc2ccc(Cl)cc2)NC(=O)[C@H]2Cc3ccccc3CN2)CC1 (stereo not given in full) | 2060 |
| O=C(N[C@H](Cc1ccc(Cl)cc1)C(=O)N1CCN(c2ccccc2CNCCc2ccc(F)cc2)CC1)[C@H]1Cc2ccccc2CN1 | 487 |
| O=C(N[C@H](Cc1ccc(Cl)cc1)C(=O)N1CCN(c2ccccc2CNCCc2cccc(F)c2)CC1)[C@H]1Cc2ccccc2CN1 | 460 |
| O=C(N[C@H](Cc1ccc(Cl)cc1)C(=O)N1CCN(c2ccccc2CNCC2CCNCC2)CC1)[C@H]1Cc2ccccc2CN1 | 208 |
| CC(NC1CCC(N)CC1)c1ccccc1N1CCN(C(=O)[C@@H](Cc2ccc(Cl)cc2)NC(=O)[C@H]2Cc3ccccc3CN2)CC1 (stereo not given in full) | 34 |
| O=C(N[C@H](Cc1ccc(Cl)cc1)C(=O)N1CCN(c2ccccc2CNCc2ccco2)CC1)[C@H]1Cc2ccccc2CN1 | 274 |
| O=C(O)CCNCc1ccccc1N1CCN(C(=O)[C@@H](Cc2ccc(Cl)cc2)NC(=O)[C@H]2Cc3ccccc3CN2)CC1 | 90 |

P = CN(CCc1ccccn1)Cc1ccccc1N1CCN(C(=O)[C@@H](Cc2ccc(Cl)cc2)NC(=O)[C@H]2Cc3ccccc3CN2)CC1
Q = O=C(N[C@H](Cc1ccc(Cl)cc1)C(=O)N1CCN(c2ccccc2CNCCCO)CC1)[C@H]1Cc2ccccc2CN1
R = NCCNCc1ccccc1N1CCN(C(=O)[C@@H](Cc2ccc(Cl)cc2)NC(=O)[C@H]2Cc3ccccc3CN2)CC1
S = CC(NC1CCCNC1)c1ccccc1N1CCN(C(=O)[C@@H](Cc2ccc(Cl)cc2)NC(=O)[C@H]2Cc3ccccc3CN2)CC1 (stereo not given in full)
T = NCc1ccccc1N1CCN(C(=O)[C@@H](Cc2ccc(Cl)cc2)NC(=O)[C@H]2Cc3ccccc3CN2)CC1
Problem: Reorder: EC50, max to min. Response format: the labels, sorted as the prompt asks.
Solution: T, P, R, Q, S
(T: 274 nM, P: 190 nM, R: 91 nM, Q: 36 nM, S: 3.8 nM)

I = O=C(N[C@H](Cc1ccc(Cl)cc1)C(=O)N1CCN(c2ccccc2CNC2CCCC2)CC1)[C@H]1Cc2ccccc2CN1
II = CCN(CC)Cc1ccccc1N1CCN(C(=O)[C@@H](Cc2ccc(Cl)cc2)NC(=O)[C@H]2Cc3ccccc3CN2)CC1
Problem: Between the two listed entries I and II , which has its EC50 at the higher number? Answer with the label corresponding to your selection.
Solution: II

P = O=C(N[C@H](Cc1ccc(Cl)cc1)C(=O)N1CCN(c2ccccc2CN2CCC(N3CCCC3)CC2)CC1)[C@H]1Cc2ccccc2CN1
Q = CN(Cc1cccnc1)Cc1ccccc1N1CCN(C(=O)[C@@H](Cc2ccc(Cl)cc2)NC(=O)[C@H]2Cc3ccccc3CN2)CC1
Problem: Could you tell me which of these two has the smaller EC50 figure? First: P Second: Q Answer with the label corresponding to your selection.
Solution: Q
(Q: 94 nM, P: 146 nM)
